tested on: RIVA; assay: growth inhibition by drug alone (1 - RLU/untreated control) (fraction); higher = stronger inhibition; details: 10 nM; time (day): 5; 177Lu-lilotomab satetraxetan 0 ug/ml
Mark criterion not met for growth inhibition by drug alone values under -0.05, and criterion met for everything at or above.

See these solved cases before continuing.
compound: CC(C)(C#N)c1cc(Cn2cncn2)cc(C(C)(C)C#N)c1 [Anastrozole]
group_label: criterion not met
//
compound: COc1cc(Nc2ncc3c(n2)-c2ccc(Cl)cc2C(c2c(F)cccc2OC)=NC3)ccc1C(=O)O [MLN8237 (Alisertib)]
group_label: criterion not met
//
compound: COc1cc2c(NC3CCN(C)CC3)nc(N3CCCN(C)CC3)nc2cc1OCCCN(C)C
group_label: criterion not met
//
compound: COc1nc(-c2ccc3c(c2)OCO3)n(-c2ccc(NC(=O)CSc3ccccc3)cc2)n1 [SecinH3]
group_label: criterion not met
//
compound: O=C(c1cc(Cc2n[nH]c(=O)c3ccccc23)ccc1F)N1CCN(C(=O)C2CC2)CC1 [Olaparib (AZD2281)]
group_label: criterion not met
//
compound: NC(=O)c1ccc(-c2nc(-c3ccccn3)c(-c3ccc4c(c3)OCO4)[nH]2)cc1
group_label: criterion met

Please look at the following compound next.
(Q) Say whether `O=C(Nc1cccc(Cl)c1)Nc1ncc(CCNc2ncnc3ccsc23)s1` shows growth inhibition by drug alone of -0.05 or more.
(A) criterion met
